System: OVCAR-8 ovarian
Experiment: NCI-60 one-dose screen, 48 h (100 = growth as untreated, 0 = no growth, -100 = all killed)
Settings: 10 µM unless noted
Compounds without any hit were thinned out: in the full panel of roughly 83,000, 20% have a hit.
readoutType: growth (%)
Please respond with the number in % and leave the unit unwritten.

{"compound": "C=C1C(=O)O[C@H]2[C@H]1CC/C(C=Nc1c(N)cc(C(F)(F)F)cc1C(F)(F)F)=C\\CC[C@@]1(C)O[C@@H]21", "tgt": "OVCAR-8 ovarian", "readoutUnits": "%", "growth": 4.81}
{"compound": "COC(=O)Nc1nc2ccc(C(=O)c3ccc(N(C)C4COC4)cc3)cc2[nH]1", "tgt": "OVCAR-8 ovarian", "readoutUnits": "%", "growth": 11}
{"compound": "CCN1CCN(Cc2ccc(-c3cc4c(N[C@H](C)c5ccccc5)ncnc4[nH]3)cc2)CC1", "tgt": "OVCAR-8 ovarian", "readoutUnits": "%", "growth": 35.6}
{"compound": "O=C(Cn1c(=O)ccn(CCCCCCCCOc2ccc(Br)cc2)c1=O)Nc1ccc(Oc2ccc(Cl)cc2)cc1", "tgt": "OVCAR-8 ovarian", "readoutUnits": "%", "growth": 63.9}
{"compound": "O=C1/C(=C\\c2cccc(OCCCCCOc3ccc(Cl)cc3)c2)N=C2SCCCN12", "tgt": "OVCAR-8 ovarian", "readoutUnits": "%", "growth": 53}

Report growth, nothing else, for this compound: `COc1cc(Nc2c(C#N)cnc3cc(OCCCN4CCN(C)CC4)c(OC)cc23)c(Cl)cc1Cl`
42.9

For `Cc1cc(Nc2cc(N3CCN(C)CC3)nc(/C=C/c3ccccc3)n2)n[nH]1` , write its growth.
36.1

Look up growth of `C[C@@H]1COC(Nc2ccc3ncnc(Nc4ccc(OCc5nccs5)c(Cl)c4)c3c2)=N1` and report it.
10.4

For the compound `C[C@@H](Oc1cc(C(=O)Nc2ccc(C(=O)N3CCN(C)CC3)cc2)nnc1N)c1c(Cl)ccc(F)c1Cl` , give its measured growth value.
63.1

Identify the reported growth for the following entry. `Cc1nc2ccc(-n3ncc(C(=O)c4cc5ccccc5[nH]4)c3N)cc2[nH]1`
41.9
